molecular target: Serine/threonine-protein kinase SIK3 (Homo sapiens, UniProt Q9Y2K2); assay: Inhibition of recombinant human SIK3 (1 to 307 residues) using KKKVSRSGLYRSP as substrate incubated for 40 mins in presence of [gamma33P]ATP by radiometric scintillation counting analysis
Sequence (Q9Y2K2 whole entry, the tested form may be a part): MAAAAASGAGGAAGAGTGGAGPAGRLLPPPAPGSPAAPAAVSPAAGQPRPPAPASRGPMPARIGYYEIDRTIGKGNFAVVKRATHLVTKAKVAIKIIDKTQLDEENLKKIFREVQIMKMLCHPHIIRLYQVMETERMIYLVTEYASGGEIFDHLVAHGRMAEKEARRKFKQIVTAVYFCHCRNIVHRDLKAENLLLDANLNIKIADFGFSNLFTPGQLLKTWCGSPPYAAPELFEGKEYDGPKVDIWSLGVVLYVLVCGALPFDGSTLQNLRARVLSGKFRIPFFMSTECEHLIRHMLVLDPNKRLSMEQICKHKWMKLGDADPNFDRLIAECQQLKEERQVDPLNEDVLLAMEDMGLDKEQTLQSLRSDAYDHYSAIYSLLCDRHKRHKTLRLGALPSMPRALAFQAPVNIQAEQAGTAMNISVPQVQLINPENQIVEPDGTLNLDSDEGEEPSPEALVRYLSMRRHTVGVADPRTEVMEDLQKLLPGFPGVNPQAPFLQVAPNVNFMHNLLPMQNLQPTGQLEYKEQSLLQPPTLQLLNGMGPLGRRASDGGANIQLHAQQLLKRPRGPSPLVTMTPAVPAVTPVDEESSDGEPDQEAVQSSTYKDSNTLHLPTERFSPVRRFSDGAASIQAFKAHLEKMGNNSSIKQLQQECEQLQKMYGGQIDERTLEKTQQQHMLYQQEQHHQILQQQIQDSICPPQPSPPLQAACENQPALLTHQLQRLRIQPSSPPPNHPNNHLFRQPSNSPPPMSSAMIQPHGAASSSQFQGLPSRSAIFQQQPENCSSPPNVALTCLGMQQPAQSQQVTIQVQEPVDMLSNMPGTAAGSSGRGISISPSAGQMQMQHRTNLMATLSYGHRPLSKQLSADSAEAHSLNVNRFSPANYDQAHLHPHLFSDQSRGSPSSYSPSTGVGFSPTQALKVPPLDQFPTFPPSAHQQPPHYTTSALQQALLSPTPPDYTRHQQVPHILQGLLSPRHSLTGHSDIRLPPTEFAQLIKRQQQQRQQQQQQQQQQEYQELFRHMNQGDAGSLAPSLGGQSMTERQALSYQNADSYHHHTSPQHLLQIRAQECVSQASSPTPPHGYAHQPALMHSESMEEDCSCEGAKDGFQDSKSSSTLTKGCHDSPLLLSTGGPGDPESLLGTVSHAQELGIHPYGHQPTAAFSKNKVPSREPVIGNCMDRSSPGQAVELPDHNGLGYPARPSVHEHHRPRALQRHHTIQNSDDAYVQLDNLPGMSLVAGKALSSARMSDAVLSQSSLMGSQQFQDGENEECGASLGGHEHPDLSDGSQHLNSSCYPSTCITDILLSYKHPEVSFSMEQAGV
pIC50: −log10 of the molar value.
EXPERIMENTAL_READOUT: pIC50

Query block: Provide only the value of recorded pIC50 for CN(C)c1ccc(C(=O)Nc2cccc(NC(=O)COc3ccc4c(=O)ccoc4c3)c2)cc1
Result block: < 5.00

---

molecular target: Rho-associated protein kinase 1 (Homo sapiens, UniProt Q13464); experiment: Inhibition of recombinant human ROCK1 (17 to 535 residues) using […] as substrate incubated for 40 mins in presence of [gamma-33P]ATP and 10 uM ATP by radiometric scintillation counting analysis
Sequence (Q13464 whole entry, the tested form may be a part): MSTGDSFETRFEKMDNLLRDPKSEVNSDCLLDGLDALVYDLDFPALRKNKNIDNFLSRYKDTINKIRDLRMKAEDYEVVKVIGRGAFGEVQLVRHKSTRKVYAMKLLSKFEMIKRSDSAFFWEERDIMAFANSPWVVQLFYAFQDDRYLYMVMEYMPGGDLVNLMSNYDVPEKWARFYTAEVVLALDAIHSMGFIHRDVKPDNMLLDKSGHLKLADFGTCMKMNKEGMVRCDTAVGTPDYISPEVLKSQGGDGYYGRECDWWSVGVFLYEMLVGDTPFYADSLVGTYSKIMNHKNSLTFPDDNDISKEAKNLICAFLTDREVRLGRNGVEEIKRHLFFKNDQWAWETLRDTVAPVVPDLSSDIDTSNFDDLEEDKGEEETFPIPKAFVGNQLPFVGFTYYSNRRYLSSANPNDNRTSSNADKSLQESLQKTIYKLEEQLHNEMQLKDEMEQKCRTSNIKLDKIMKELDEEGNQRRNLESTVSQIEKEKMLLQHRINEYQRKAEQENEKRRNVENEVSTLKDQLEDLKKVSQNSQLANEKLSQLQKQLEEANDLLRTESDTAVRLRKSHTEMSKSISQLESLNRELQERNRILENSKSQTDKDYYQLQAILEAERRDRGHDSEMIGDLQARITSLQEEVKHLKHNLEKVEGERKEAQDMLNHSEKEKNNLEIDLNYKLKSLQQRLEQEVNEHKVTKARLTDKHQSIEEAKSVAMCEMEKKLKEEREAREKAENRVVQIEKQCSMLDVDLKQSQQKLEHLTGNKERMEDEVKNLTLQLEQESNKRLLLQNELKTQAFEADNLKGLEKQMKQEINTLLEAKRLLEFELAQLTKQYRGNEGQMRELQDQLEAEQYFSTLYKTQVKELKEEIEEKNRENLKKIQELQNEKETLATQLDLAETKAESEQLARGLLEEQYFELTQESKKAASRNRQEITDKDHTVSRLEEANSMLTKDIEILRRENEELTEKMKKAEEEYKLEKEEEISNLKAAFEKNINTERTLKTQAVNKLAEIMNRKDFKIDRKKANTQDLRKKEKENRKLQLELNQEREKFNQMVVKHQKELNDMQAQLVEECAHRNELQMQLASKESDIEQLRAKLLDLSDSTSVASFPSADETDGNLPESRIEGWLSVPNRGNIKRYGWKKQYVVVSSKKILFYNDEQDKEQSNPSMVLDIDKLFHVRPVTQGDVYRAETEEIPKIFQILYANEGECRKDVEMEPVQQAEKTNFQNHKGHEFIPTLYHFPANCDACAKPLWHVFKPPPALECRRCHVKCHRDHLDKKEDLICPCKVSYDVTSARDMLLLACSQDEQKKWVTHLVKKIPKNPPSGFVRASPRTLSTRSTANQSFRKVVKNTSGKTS
Item-by-item account of pIC50
Lab note: report pIC50 as minus log10 of the concentration in molar units, number only.

Some solved entries appear below for comparison.
* CN(C)c1ccc(C(=O)Nc2cccc(NC(=O)COc3ccc4c(c3)OCCC4=O)c2)cc1 | 6.84
* O=C(COc1ccc2c(=O)ccoc2c1)Nc1cccc(NS(=O)(=O)c2ccc(OC(F)(F)F)cc2)c1 | 5.19
* Cc1ccc(C(=O)Nc2cccc(NC(=O)COc3ccc4c(=O)ccoc4c3)c2)cc1 | 6.74
* N#Cc1ccc(C(=O)Nc2cccc(NC(=O)COc3ccc4c(=O)ccoc4c3)c2)cc1 | 6.91

Query block: Provide only the value of recorded pIC50 for COc1ccc(OCC(=O)Nc2cccc(NC(=O)c3ccc(N(C)C)cc3)c2)cc1F
Result block: 5.74
